Protein target, amino acids: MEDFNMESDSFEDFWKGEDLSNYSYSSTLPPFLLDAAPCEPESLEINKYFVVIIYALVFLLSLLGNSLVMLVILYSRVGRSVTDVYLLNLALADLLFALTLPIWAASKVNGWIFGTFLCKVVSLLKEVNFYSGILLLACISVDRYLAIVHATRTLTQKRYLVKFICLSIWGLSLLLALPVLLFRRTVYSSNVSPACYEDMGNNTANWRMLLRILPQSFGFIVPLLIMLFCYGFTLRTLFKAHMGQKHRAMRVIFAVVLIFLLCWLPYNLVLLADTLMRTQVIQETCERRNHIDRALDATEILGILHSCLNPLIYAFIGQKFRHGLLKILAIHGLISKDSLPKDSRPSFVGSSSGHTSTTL
parameter: Ki

molecule="CCN(C)S(=O)(=O)c1scc(NC(=S)Nc2cccc(Cl)c2Cl)c1O [Example 22]" parameter=Ki endpoint_result="5 to 91 nM"
molecule="CN(C)S(=O)(=O)c1scc(NC(=O)Nc2ccccc2Br)c1O [Example 20.1]" parameter=Ki endpoint_result="5 to 91 nM"
molecule="CCN1CCN(S(=O)(=O)c2scc(NC(=O)Nc3cccc(Cl)c3Cl)c2O)CC1 [Example 21.5]" parameter=Ki endpoint_result="5 to 91 nM"
molecule="CCN(CC)S(=O)(=O)c1scc(NC(=O)Nc2cccc(Cl)c2Cl)c1O [Example 20.3]" parameter=Ki endpoint_result="5 to 91 nM"
